# Protocol conditions: in isopropanol, 333.15 K
Measurement name: solubility (mole fraction)
One number for each entry.

## Task Specify reported solubility (mole fraction) for the molecule shown: O=[N+]([O-])c1cn[nH]c1[N+](=O)[O-]
## Result 0.642

---

# Protocol conditions: in anisole, 338.15 K
Measurement name: solubility (mole fraction)
Numbers only.

## Task Specify reported solubility (mole fraction) for the molecule shown: O=[N+]([O-])c1cn[nH]c1[N+](=O)[O-]
## Result 0.411

---

# Protocol conditions: in n-butanol, 298.15 K
Measurement name: solubility (mole fraction)
Give bare numbers.

## Task Specify reported solubility (mole fraction) for the compound shown: O=[N+]([O-])c1cn[nH]c1[N+](=O)[O-]
## Result 0.318

---

# Protocol conditions: in anisole, 298.15 K
Measurement name: solubility (mole fraction)
Answers are plain numbers.

## Task Specify reported solubility (mole fraction) for the compound shown: O=[N+]([O-])c1cn[nH]c1[N+](=O)[O-]
## Result 0.043

---

# Protocol conditions: in chlorobenzene, 328.15 K
Measurement name: solubility (mole fraction)
Answers are plain numbers.

## Task Specify reported solubility (mole fraction) for the compound shown: O=[N+]([O-])c1cn[nH]c1[N+](=O)[O-]
## Result 0.00402

---

# Protocol conditions: in chlorobenzene, 318.15 K
Measurement name: solubility (mole fraction)

## Task Specify reported solubility (mole fraction) for the compound shown: O=[N+]([O-])c1cn[nH]c1[N+](=O)[O-]
## Result 0.00266

---

# Protocol conditions: in chlorobenzene, 323.15 K
Measurement name: solubility (mole fraction)
Give bare numbers.

## Task Specify reported solubility (mole fraction) for the compound shown: O=[N+]([O-])c1cn[nH]c1[N+](=O)[O-]
## Result 0.00328

---

# Protocol conditions: in n-butanol, 338.15 K
Measurement name: solubility (mole fraction)
Answers are plain numbers.

## Task Specify reported solubility (mole fraction) for the compound shown: O=[N+]([O-])c1cn[nH]c1[N+](=O)[O-]
## Result 0.648

---

# Protocol conditions: in chlorobenzene, 333.15 K
Measurement name: solubility (mole fraction)
One number for each entry.

## Task Specify reported solubility (mole fraction) for the compound shown: O=[N+]([O-])c1cn[nH]c1[N+](=O)[O-]
## Result 0.00494

---

# Protocol conditions: in n-butanol, 313.15 K
Measurement name: solubility (mole fraction)
Numbers only.

## Task Specify reported solubility (mole fraction) for the molecule shown: O=[N+]([O-])c1cn[nH]c1[N+](=O)[O-]
## Result 0.411

---

# Protocol conditions: in toluene, 323.15 K
Measurement name: solubility (mole fraction)
One number for each entry.

## Task Specify reported solubility (mole fraction) for the molecule shown: O=[N+]([O-])c1cn[nH]c1[N+](=O)[O-]
## Result 0.00499

---

# Protocol conditions: in anisole, 328.15 K
Measurement name: solubility (mole fraction)
One number for each entry.

## Task Specify reported solubility (mole fraction) for the compound shown: O=[N+]([O-])c1cn[nH]c1[N+](=O)[O-]
## Result 0.237

---

# Protocol conditions: in chlorobenzene, 308.15 K
Measurement name: solubility (mole fraction)
Answers are plain numbers.

## Task Specify reported solubility (mole fraction) for the molecule shown: O=[N+]([O-])c1cn[nH]c1[N+](=O)[O-]
## Result 0.0018

---

# Protocol conditions: in benzene, 338.15 K
Measurement name: solubility (mole fraction)
Answers are plain numbers.

## Task Specify reported solubility (mole fraction) for the compound shown: O=[N+]([O-])c1cn[nH]c1[N+](=O)[O-]
## Result 0.00936
